Target: T1, human LAG3 expressed on cells (human, UniProt P18627 23-525)
T1 sequence (looked up): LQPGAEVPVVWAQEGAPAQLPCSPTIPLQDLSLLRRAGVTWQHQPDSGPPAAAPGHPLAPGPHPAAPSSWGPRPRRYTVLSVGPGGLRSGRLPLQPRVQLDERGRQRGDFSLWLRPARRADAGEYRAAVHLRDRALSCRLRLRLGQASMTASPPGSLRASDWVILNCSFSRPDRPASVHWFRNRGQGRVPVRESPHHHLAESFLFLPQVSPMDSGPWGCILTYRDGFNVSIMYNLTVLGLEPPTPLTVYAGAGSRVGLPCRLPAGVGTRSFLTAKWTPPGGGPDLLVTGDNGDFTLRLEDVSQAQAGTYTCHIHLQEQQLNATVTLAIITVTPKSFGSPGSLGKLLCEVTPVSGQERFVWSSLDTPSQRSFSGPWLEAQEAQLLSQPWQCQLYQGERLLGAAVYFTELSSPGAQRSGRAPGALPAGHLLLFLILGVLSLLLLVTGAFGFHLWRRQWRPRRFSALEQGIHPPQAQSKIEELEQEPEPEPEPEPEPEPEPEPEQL
Protocol details: cell-based or functional assay
We begin with a simple list: items and their reported IL-2, % of BMS, at 1.234567901 ug/mL.
Give just the numeric value; % need not be written.

* sdAb No. 27 (VHH, Fc of the tested form not described; also called sdAb 27; not shown: Fc part implied by anti-human Fc capture and anti-human IgG Fc detection) VHH: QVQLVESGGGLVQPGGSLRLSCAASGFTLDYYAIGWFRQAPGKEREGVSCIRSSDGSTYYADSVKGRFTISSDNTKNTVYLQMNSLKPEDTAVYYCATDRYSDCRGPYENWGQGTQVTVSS | 36.5
* combination of sdAbs 25 and 27 (other) VHH 1: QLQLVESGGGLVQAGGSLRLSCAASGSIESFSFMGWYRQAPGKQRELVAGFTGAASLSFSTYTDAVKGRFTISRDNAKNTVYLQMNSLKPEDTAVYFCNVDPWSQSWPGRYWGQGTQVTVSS VHH 2: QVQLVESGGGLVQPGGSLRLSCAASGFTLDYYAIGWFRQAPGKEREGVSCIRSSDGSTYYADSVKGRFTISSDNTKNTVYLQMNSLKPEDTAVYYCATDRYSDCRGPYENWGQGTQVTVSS | 51.2
* combination of sdAbs 25 and 18 (other) VHH 1: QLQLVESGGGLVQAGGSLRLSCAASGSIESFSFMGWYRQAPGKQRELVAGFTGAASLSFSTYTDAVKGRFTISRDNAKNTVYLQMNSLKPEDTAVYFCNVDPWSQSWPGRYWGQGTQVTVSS VHH 2: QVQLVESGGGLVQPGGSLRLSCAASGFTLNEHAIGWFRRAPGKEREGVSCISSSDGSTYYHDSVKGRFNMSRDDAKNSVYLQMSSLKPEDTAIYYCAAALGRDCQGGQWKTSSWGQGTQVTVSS | 45.4

Q: Look up and report measured IL-2, % of BMS, at 1.234567901 ug/mL for this entry: sdAb No. 18 (VHH, Fc of the tested form not described; also called sdAb 18; not shown: Fc part implied by anti-human Fc capture) VHH: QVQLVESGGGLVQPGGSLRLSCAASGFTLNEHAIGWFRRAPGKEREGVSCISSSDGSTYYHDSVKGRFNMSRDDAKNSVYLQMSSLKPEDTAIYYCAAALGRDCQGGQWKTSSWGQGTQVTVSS
Ans: 15.5

Q: Look up and report measured IL-2, % of BMS, at 1.234567901 ug/mL for this entry: combination of sdAbs 25 and 2015 (other) VHH 1: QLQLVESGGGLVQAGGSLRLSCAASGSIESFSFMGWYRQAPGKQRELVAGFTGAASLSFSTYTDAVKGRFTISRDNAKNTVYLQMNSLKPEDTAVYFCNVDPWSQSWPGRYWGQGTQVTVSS VHH 2: QLQLVESGGGLAQTGGSLRLSCAAAGFTFDDTATGWFRQAPGKNREGVACISSSDGRIHYIDSAKGRFTISKDNAKKTVYLQMDSLKPEDTAVYYCAAARKGSTDCQGAIWGSWGQGTQVIVSS
Ans: 18.9

Q: Look up and report measured IL-2, % of BMS, at 1.234567901 ug/mL for this entry: sdAb No. 25 (VHH, Fc of the tested form not described; also called sdAb 25; sdAb #25; not shown: Fc part implied by anti-human Fc capture and anti-human IgG Fc detection) VHH: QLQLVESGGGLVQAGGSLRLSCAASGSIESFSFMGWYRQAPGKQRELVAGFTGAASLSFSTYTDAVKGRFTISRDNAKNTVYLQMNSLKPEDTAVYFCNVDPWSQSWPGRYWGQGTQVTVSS
Ans: 25.1
